Data origin, for the record: paper PMC12311259

system: Adrenergic α1D (hu) (Homo sapiens)
Construct: Eurofins Panlabs 302080
Sequence (P25100 whole entry): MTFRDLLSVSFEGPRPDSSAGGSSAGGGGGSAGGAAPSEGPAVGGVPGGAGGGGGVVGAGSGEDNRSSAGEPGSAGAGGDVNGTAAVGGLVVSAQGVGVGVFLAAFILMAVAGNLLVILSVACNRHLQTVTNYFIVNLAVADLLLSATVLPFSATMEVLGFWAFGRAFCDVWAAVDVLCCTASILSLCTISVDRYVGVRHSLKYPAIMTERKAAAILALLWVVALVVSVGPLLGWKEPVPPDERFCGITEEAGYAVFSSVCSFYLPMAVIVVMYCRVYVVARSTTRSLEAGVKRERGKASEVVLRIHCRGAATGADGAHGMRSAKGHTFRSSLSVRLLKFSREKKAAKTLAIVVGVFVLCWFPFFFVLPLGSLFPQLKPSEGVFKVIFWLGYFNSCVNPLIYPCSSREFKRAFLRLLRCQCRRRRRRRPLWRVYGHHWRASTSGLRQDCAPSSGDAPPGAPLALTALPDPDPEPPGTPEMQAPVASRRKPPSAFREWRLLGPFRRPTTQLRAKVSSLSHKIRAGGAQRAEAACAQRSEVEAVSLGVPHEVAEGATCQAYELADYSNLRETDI
assay_details: Functionality assay, IP1, Eurofins Panlabs 302080
Assay type: cell-based
result_type: IC50
Give the figure together with its unit, number first.

Reported IC50 for C[C@@H]1CN(C(=N)N)N=C1c1ccc(F)cc1O : what is it?
7.76 µM

###

system: Histamine H1 (hu) (Homo sapiens)
Construct: Eurofins Panlabs 313200
Sequence (P35367 whole entry): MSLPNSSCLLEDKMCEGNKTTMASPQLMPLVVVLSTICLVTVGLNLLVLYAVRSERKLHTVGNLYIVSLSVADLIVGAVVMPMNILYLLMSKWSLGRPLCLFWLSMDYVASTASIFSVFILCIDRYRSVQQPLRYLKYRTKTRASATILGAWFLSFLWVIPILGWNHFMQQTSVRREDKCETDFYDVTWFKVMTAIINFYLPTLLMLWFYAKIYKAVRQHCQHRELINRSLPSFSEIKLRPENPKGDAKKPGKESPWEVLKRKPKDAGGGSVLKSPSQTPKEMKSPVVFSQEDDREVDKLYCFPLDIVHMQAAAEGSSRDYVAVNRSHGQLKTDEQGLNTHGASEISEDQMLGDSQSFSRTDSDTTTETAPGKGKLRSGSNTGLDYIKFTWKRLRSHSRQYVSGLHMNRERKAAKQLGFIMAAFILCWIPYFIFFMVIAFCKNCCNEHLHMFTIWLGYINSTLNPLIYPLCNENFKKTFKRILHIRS
assay_details: Functionality assay, GTPγS Binding, Eurofins Panlabs 313200
Format: biochemical
result_type: IC50
Give the figure together with its unit, number first.

Notebook entry, Histamine H1 (hu) (Homo sapiens) assay: IC50 of C[C@@H]1CN(C(=N)N)N=C1c1ccc(F)cc1O [AM1476] = ?
28 µM
